Consider the following compounds and their measured % inhibition of secretion of TNF-alpha induced by PMA readings.
Test system: TNF-alpha secretion by human monocytes (line U937)
Assay: inhibition of secretion of TNF-alpha induced by PMA in human monocytes (line U937)
Type: cell-based
Details: 10^-3 M; PMA 10 nM, 48 hours, 37° C.; mean of 3 measurements
Your answer is read as %, so omit the unit and give the number.

Consider the worked cases shown below.
- compound: "[Cl-].[Cl-].[Mg+2] [Mg Cl2, magnesium chloride]"
  system-tested: "TNF-alpha secretion by human monocytes (line U937)"
  meas-value: 70
- compound: "O.O.O.O.O.O.O.[Cl-].[Cl-].[Sr+2]"
  system-tested: "TNF-alpha secretion by human monocytes (line U937)"
  meas-value: 54
- compound: "O=[N+]([O-])[O-].O=[N+]([O-])[O-].[Sr+2] [Sr(NO3)2, strontium nitrate]"
  system-tested: "TNF-alpha secretion by human monocytes (line U937)"
  meas-value: 75

Lab note: next compound to report on.
Noted % inhibition of secretion of TNF-alpha induced by PMA for [Ca+2].[Cl-].[Cl-] [CaCL2.7H2 O, calcium chloride] , tested on TNF-alpha secretion by human monocytes (line U937): 67
